assay.target: T1, mature myostatin (human, murine, rat, chicken, turkey, …, UniProt O08689 268-376 (mouse entry))
T1 construct: also called growth differentiation factor-8; GDF-8
T1 sequence: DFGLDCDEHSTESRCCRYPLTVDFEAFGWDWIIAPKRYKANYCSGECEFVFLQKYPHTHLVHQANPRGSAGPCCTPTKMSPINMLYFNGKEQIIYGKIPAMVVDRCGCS
experiment.description: ELISA, myostatin coated, periprep Fab titrated, anti-human-kappa-AP
readout.kind: binding result

Known results for binders:
binder | observed.value
C12 Fab with the Asn residue in CDRL3 replaced with glutamine (Fab, V domains shown, Periprep Fab) VH: QLQLQESGPGLVKPSETLSLTCTVSGFSLRKVGSSVSWIRQPPGKGLEWIGHIYWDDDKRLNPSLRNRVTISVDTSKNQFSLKLSSVTAADTAVYYCARRAITTVIGGGTFDLWGQGTLVTVSS VL: DIQMTQSPSSLSASVGDRVTITCSASSSISYMHWYQQKPGKAPKLLIYDTSKLARGVPSRFSGSGSGTDFTLTISSLQPEDFATYYCQQWYLQPLTFGGGTKVEIKR | binds
C12 Fab with the Asn residue in CDRL3 replaced with leucine (Fab, V domains shown, Periprep Fab) VH: QLQLQESGPGLVKPSETLSLTCTVSGFSLRKVGSSVSWIRQPPGKGLEWIGHIYWDDDKRLNPSLRNRVTISVDTSKNQFSLKLSSVTAADTAVYYCARRAITTVIGGGTFDLWGQGTLVTVSS VL: DIQMTQSPSSLSASVGDRVTITCSASSSISYMHWYQQKPGKAPKLLIYDTSKLARGVPSRFSGSGSGTDFTLTISSLQPEDFATYYCQQWYLLPLTFGGGTKVEIKR | binds
C12 Fab with the Asn residue in CDRL3 replaced with glutamic acid (Fab, V domains shown, Periprep Fab) VH: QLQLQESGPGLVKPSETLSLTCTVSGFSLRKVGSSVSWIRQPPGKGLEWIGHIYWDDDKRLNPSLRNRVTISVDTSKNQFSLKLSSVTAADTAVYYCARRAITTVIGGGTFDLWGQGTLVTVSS VL: DIQMTQSPSSLSASVGDRVTITCSASSSISYMHWYQQKPGKAPKLLIYDTSKLARGVPSRFSGSGSGTDFTLTISSLQPEDFATYYCQQWYLEPLTFGGGTKVEIKR | binds
C12 Fab with the Asn residue in CDRL3 replaced with cysteine (Fab, V domains shown, Periprep Fab) VH: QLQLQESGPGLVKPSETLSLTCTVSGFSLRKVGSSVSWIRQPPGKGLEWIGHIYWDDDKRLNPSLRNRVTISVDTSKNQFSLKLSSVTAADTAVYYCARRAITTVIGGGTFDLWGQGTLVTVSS VL: DIQMTQSPSSLSASVGDRVTITCSASSSISYMHWYQQKPGKAPKLLIYDTSKLARGVPSRFSGSGSGTDFTLTISSLQPEDFATYYCQQWYLCPLTFGGGTKVEIKR | binds

Here is the next item to consider.
Query C12 Fab with the Asn residue in CDRL3 replaced with alanine (Fab, V domains shown, Periprep Fab) VH: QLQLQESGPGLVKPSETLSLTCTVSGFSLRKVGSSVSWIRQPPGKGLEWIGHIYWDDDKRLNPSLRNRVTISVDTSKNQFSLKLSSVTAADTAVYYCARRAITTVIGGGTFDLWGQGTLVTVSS VL: DIQMTQSPSSLSASVGDRVTITCSASSSISYMHWYQQKPGKAPKLLIYDTSKLARGVPSRFSGSGSGTDFTLTISSLQPEDFATYYCQQWYLAPLTFGGGTKVEIKR yields binding result of binds
